# MEASUREMENT DESCRIPTION: Selectivity index, ratio of CC50 for african green monkey Vero E6 cells to EC50 for antiviral activity against DENV-2 16,681 infected in Vero E6 cells
# Format: toxicity, cell-based
# CONDITIONS USED: read-out: Ratio CC50/EC50
Below: a set of entries, each annotated with reported selectivity ratio.

{"columns": ["SMILES STRUCTURE", "selectivity ratio"],
 "data": [
  ["CN1C[C@@H]2C[C@H](C1=S)c1cccc(=O)n1C2", "> 10000"]
]}

Please find the next molecule below.
Q: Record request: selectivity ratio value, item CN1C[C@@H]2C[C@H](C1)c1cccc(=S)n1C2
Result: > 53.2
